Data credit: patent US9765074B2

target: hROMK (hKir1.1) (Homo sapiens); assay: Thallium Flux Assay (ROMK channel functional thallium flux, FLIPR-Tetra); conditions: HEK293 cells stably expressing hROMK (hKir1.1); 30 min compound incubation
MEASURED_ATTRIBUTE: IC50 (nM)

{"COMPOUND": "CC1=C(N2CCC3(CCN(C[C@@H](O)c4nnc(-n5cnnn5)cc4C)CC3F)C2=O)COC1=O (single isomer, unassigned) [Example 199]", "MEASURED_ATTRIBUTE": "IC50", "RECORDED_MEASUREMENT": 20}

[A] CC1=C(N2CCC3(CCN(C[C@@H](O)c4c(F)cc(-n5cnnn5)cc4F)CC3)C2=O)COC1=O
[B] CC1=C(N2CC(=O)C3(CCN(C[C@H](O)c4ccc(-n5cnnn5)nc4)CC3)C2=O)COC1=O
[C] CC1=CN(C2=C(C)C(=O)OC2)C(=O)C12CCN(C[C@H](O)c1ccc(-n3cnnn3)nc1)CC2
Task: Exam item: list the entries in increasing order of IC50. List the labels according to the requested ordering.
Output: B, C, A

###

target: hROMK (hKir1.1) (Homo sapiens, UniProt P48048); assay: Thallium Flux Assay (ROMK channel functional thallium flux, FLIPR-Tetra); conditions: HEK293 cells stably expressing hROMK (hKir1.1); 30 min compound incubation
Sequence (P48048 whole entry): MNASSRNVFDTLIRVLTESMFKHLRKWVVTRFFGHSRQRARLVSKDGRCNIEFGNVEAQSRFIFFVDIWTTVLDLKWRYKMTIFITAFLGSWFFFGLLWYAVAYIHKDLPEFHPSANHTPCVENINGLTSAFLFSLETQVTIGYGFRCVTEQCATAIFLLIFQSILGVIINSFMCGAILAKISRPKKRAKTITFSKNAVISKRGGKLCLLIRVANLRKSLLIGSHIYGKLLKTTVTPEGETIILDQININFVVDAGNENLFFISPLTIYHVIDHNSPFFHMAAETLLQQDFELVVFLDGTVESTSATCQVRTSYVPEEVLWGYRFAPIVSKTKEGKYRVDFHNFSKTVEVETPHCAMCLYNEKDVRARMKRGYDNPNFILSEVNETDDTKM
MEASURED_ATTRIBUTE: IC50 (nM)

Known results for molecules:
{"MOLECULE": "CC1=C(N2C(=O)C3(CCN(C[C@@H](O)c4ccc(-n5cnnn5)nc4)CC3)CC2C)COC1=O (single isomer, unassigned) [Example 63]", "ASSAYED_SYSTEM": "hROMK (hKir1.1) (Homo sapiens, UniProt P48048)", "RECORDED_MEASUREMENT": 40}
{"MOLECULE": "CC1=C(N2CCC3(CCN(C[C@H](O)c4cncc(-n5cnnn5)c4)CC3)C2=O)COC1=O [Example 131]", "ASSAYED_SYSTEM": "hROMK (hKir1.1) (Homo sapiens, UniProt P48048)", "RECORDED_MEASUREMENT": 680}
{"MOLECULE": "C[C@@H]1CC2(CCN(C[C@H](O)c3cnc(-n4cnnn4)cn3)CC2)C(=O)N1C1=CC(=O)OC1 [Example 79]", "ASSAYED_SYSTEM": "hROMK (hKir1.1) (Homo sapiens, UniProt P48048)", "RECORDED_MEASUREMENT": 100}
{"MOLECULE": "CC1=C(N2CCC3(CC4CCC(C3)N4C[C@H](O)c3cc(C)c(-n4cnnn4)nn3)C2=O)COC1=O (stereo partly drawn) [Example 55]", "ASSAYED_SYSTEM": "hROMK (hKir1.1) (Homo sapiens, UniProt P48048)", "RECORDED_MEASUREMENT": 50}
{"MOLECULE": "CO[C@@H](CN1CCC2(CC1)CCN(C1=C(C)C(=O)OC1)C2=O)c1cnc(-n2cnnn2)cn1 [Example 283]", "ASSAYED_SYSTEM": "hROMK (hKir1.1) (Homo sapiens, UniProt P48048)", "RECORDED_MEASUREMENT": 60}
{"MOLECULE": "CC1CC2(CC3CCC(C2)N3C[C@@H](O)c2ccc(-n3cnnn3)nc2)C(=O)N1C1=CC(=O)OC1 (single isomer, unassigned) [Example 103]", "ASSAYED_SYSTEM": "hROMK (hKir1.1) (Homo sapiens, UniProt P48048)", "RECORDED_MEASUREMENT": 10}
{"MOLECULE": "CC1OC(=O)C=C1N1C(=O)C2(CCN(C[C@H](O)c3ccc(-n4cnnn4)nc3)CC2)C[C@@H]1C (single isomer, unassigned) [Example 229]", "ASSAYED_SYSTEM": "hROMK (hKir1.1) (Homo sapiens, UniProt P48048)", "RECORDED_MEASUREMENT": 280}
{"MOLECULE": "CC1=C(N2CC[C@]3(CCN(C[C@H](O)c4cnc(-n5cnnn5)cn4)CC3F)C2=O)COC1=O (mixture of isomers) [Example 224]", "ASSAYED_SYSTEM": "hROMK (hKir1.1) (Homo sapiens, UniProt P48048)", "RECORDED_MEASUREMENT": 110}

[I] O=C1C=C(N2C=CC3(CCN(C[C@@H](O)c4ccc(-n5cnnn5)nc4)CC3)C2=O)CO1 [Example 155]
[II] CC1=C(N2CC(O)C3(CCN(C[C@H](O)c4ccc(-n5cnnn5)nc4)CC3)C2=O)COC1=O (single isomer, unassigned) [Example 110]
[III] CC1=C(N2CCC3(CCN(C[C@H](O)c4ccc(-n5cnnn5)c(C)n4)CC3)C2=O)COC1=O [Example 30]
Task: Order the records by IC50, with each subsequent value no larger than the one before. List the labels according to the requested ordering.
Output: II, I, III
(II: 120 nM, I: 60 nM, III: 20 nM)

[a] CC1=C(N2CCC3(CCN(C[C@@H](O)c4cc(C)c(-n5cnnn5)nn4)CC3)C2=O)COC1=O [Example 127]
[b] O=C1C=C(N2C(=O)C3(CCN(C[C@H](O)c4cnc(-n5cnnn5)cn4)CC3)CC2C2CC2)CO1 (mixture of isomers) [Example 213]
Task: Could you tell me which of a and b has the lower IC50 reading? Please respond with the label that marks your chosen entry.
Output: a

[a] COCC1=C(N2CCC3(CCN(C[C@H](O)c4ccc(-n5cnnn5)nn4)CC3)C2=O)COC1=O [Example 191]
[b] CC1OC(=O)C=C1N1C(=O)C2(CCN(C[C@H](O)c3ccc(-n4cnnn4)nc3)CC2)C[C@H]1C (single isomer, unassigned) [Example 231]
Task: Determine, for a and b , which has the greater value of IC50. Please respond with the label that marks your chosen entry.
Output: b
(b: 1530 nM, a: 70 nM)
